Test system: NCI-H23
assayName: NCI tumour cell line growth inhibition, 48 h
The source made the active and inactive calls. Rule as the data show it: active = GI50 up to about 1.1 µM and inactive = higher.
Labels: active, inactive

[[record]]
compound = "CC12CC(=O)OC(Cc3ccccc31)O2 (centres undefined)"
assignedlabel = "inactive"

[[record]]
compound = "O=C(NCCNCCNCCNC(=O)c1cc(-c2ccccc2)nc2ccccc12)c1cc(-c2ccccc2)nc2ccccc12"
assignedlabel = "inactive"

[[record]]
compound = "N#Cc1nc(-c2ccccn2)oc1N"
assignedlabel = "inactive"

[[record]]
compound = "O=C1CCCCCC1CC(Sc1ccccc1)Sc1ccccc1 (centres undefined)"
assignedlabel = "inactive"

[[record]]
compound = "CC1(C)[C@@H]2C[C@H]1[C@@H](Cc1cccc(C[C@H]3c4cc(-c5ccccn5)ncc4[C@H]4C[C@@H]3C4(C)C)c1)c1cc(-c3ccccn3)ncc12"
assignedlabel = "inactive"

[[record]]
compound = "[O-][n+]1onc2c1-c1nonc1CC2"
assignedlabel = "inactive"

[[record]]
compound = "[N-]=[N+]=NC1C2CC3C4CC5CC3[C@H](C2)C(C5)C41 (some centres undefined)"
assignedlabel = "inactive"

[[record]]
compound = "COC(=O)CC1C2CC3C(C2=O)C13 (centres undefined)"
assignedlabel = "inactive"

[[record]]
compound = "CC(=O)OC/C=C(\\C)CCC(Br)C(C)(C)Br (centres undefined)"
assignedlabel = "inactive"

[[record]]
compound = "COc1c2cc(C(C)(C)C)cc1CSCc1cc(C(C)(C)C)cc(c1OC)CCCCC2"
assignedlabel = "inactive"

[[record]]
compound = "CC(=O)OCCOCn1cc(C=O)c2ccccc21"
assignedlabel = "inactive"

[[record]]
compound = "Cc1cccc(-c2nc3c(C(=O)NCCN(C)C)cccc3[nH]2)c1"
assignedlabel = "active"

[[record]]
compound = "CCCCOCN/C(N)=N/C#N"
assignedlabel = "inactive"

[[record]]
compound = "O=CN/C=C/c1ccc(O)c(O)c1"
assignedlabel = "inactive"

[[record]]
compound = "CC(=O)OC1CC2C(=O)C(=O)C1(C)C2(C)C (centres undefined)"
assignedlabel = "inactive"

[[record]]
compound = "c1cnc2c3[nH]cc4[nH]c5ccccc5c4c-3nc2c1"
assignedlabel = "inactive"

[[record]]
compound = "CN(C)CCNc1ccccn1"
assignedlabel = "inactive"

[[record]]
compound = "Clc1cc(N/N=C(\\c2ccccc2)c2ccccn2)ncn1"
assignedlabel = "active"

[[record]]
compound = "Nc1nc(Cl)c(CO)c(NCC2(CO)CC(CCc3ccccc3)C2)n1 (centres undefined)"
assignedlabel = "active"

[[record]]
compound = "CCC(NC(C)c1ccccc1)C(=O)c1ccc(OCc2ccccc2)c(OCc2ccccc2)c1 (centres undefined)"
assignedlabel = "inactive"

[[record]]
compound = "O=C1NN=CN2C(=O)CCC12 (centres undefined)"
assignedlabel = "inactive"

[[record]]
compound = "O=S(=O)(O)c1ccc(/N=N/c2ccc(/N=N/c3c(O)ccc4ccc(S(=O)(=O)O)cc34)cc2)cc1"
assignedlabel = "inactive"

[[record]]
compound = "Cn1cnc(C(N)=[Se])c1N"
assignedlabel = "inactive"

[[record]]
compound = "N/C(=N\\O)N/N=C/c1ncccc1O"
assignedlabel = "inactive"

